Property: hERG current change (%, negative = inhibition) at 10uM; scope: individual compounds
Molecular target: human ether-à-go-go-related gene (hERG) potassium channel (human, UniProt Q12809)
Sequence (Q12809 whole entry, looked up): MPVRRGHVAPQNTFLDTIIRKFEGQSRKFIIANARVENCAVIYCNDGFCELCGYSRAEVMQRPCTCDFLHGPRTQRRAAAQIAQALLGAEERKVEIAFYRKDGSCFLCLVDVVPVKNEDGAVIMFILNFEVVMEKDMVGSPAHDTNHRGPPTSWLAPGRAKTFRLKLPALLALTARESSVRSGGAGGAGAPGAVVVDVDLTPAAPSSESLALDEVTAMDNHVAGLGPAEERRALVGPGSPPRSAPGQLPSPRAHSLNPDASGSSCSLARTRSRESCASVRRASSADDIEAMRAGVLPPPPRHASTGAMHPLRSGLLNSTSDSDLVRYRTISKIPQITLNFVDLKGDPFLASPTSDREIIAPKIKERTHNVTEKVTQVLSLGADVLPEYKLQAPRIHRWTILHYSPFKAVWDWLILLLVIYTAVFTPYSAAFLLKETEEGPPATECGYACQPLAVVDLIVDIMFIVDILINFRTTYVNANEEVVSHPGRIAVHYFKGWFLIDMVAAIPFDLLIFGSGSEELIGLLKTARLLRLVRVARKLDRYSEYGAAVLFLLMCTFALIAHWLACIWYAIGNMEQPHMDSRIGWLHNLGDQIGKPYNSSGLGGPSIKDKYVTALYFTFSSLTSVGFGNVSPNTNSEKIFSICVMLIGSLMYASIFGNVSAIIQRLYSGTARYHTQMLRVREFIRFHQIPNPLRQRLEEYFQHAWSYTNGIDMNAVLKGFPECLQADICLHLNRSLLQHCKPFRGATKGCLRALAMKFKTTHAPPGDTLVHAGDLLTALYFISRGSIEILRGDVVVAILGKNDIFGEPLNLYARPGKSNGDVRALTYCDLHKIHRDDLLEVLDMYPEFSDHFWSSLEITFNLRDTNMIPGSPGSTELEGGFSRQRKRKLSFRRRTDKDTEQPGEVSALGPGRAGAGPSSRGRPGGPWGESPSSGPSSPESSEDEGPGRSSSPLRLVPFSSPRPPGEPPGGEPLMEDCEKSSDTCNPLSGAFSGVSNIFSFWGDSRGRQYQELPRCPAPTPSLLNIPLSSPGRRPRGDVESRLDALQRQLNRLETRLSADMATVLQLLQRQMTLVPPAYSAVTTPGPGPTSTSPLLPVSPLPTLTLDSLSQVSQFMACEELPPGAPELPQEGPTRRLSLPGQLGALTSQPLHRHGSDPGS
Assay: primary screen, population patch clamp on CHO cells stably expressing hERG; higher = less effect of the substance
Screen size: about 310,000 compounds; about 14,000 (4.5%) showed an effect of 50% or more. The effect is printed as a negative number. The sample holds strong results, similar compounds and a random draw of the others, so the mix is not that of the screen.
value.kind: hERG current change (%, negative = inhibition) at 10uM (%)

compound: Cc1oc(-c2cccc(F)c2)nc1CN1CCCCC1CCc1ccccn1 (stereo not drawn)
readout.value: -91.5
--
compound: COc1ccc(-c2nc(CS(=O)CC(=O)NCc3ccccn3)c(C)o2)cc1 (stereo not drawn)
readout.value: 6.44
--
compound: [N-]=[N+]=NC[C@H](Cc1ccccc1)N1CC[C@@H](OCc2ccccc2)CCC1=O
readout.value: -13.3
--
compound: Cc1oc2c(c(C)cc3oc(=O)c(CC(=O)N[C@@H](CC(C)C)C(=O)O)c(C)c32)c1C
readout.value: 15.8
--
compound: Fc1cccc(Cc2noc(CN3CCCCC3CCc3ccccn3)n2)c1 (stereo not drawn)
readout.value: 0.789
--
compound: Cn1ccnc1C1CCCCN1Cc1nc(-c2ccc3c(c2)OCO3)no1 (stereo not drawn)
readout.value: -7.65
--
compound: Clc1ccccc1Cc1noc(CN2CCCCC2CCc2ccccn2)n1 (stereo not drawn)
readout.value: -29.4
--
compound: c1ccc(CCC2CCCCN2Cc2nc(-c3ccc4c(c3)OCO4)no2)nc1 (stereo not drawn)
readout.value: -55.7
--
compound: COCCNC(=O)Nc1ccc2nc(-c3ccco3)c(-c3ccco3)nc2c1
readout.value: 4.08

----------
Target: human ether-à-go-go-related gene (hERG) potassium channel (human, UniProt Q12809)
Test: primary screen, population patch clamp on CHO cells stably expressing hERG; higher = less effect of the substance
Among all 310,000 compounds or so, about 14,000 (4.5%) showed an effect of 50% or more. The effect is printed as a negative number. The sample holds strong results, similar compounds and a random draw of the others, so the mix is not that of the screen.
Recorded hERG current change (%, negative = inhibition) at 10uM by entry
value.kind: hERG current change (%, negative = inhibition) at 10uM (%)

structure: CCCNc1c(NS(=O)(=O)c2ccc(C)cc2C)c(=O)oc2ccccc12
tgt: human ether-à-go-go-related gene (hERG) potassium channel (human, UniProt Q12809)
readout.value: -52.2

structure: COc1ccc(OC)c(S(=O)(=O)Nc2c(NC3CCCCC3)c3ccccc3oc2=O)c1
tgt: human ether-à-go-go-related gene (hERG) potassium channel (human, UniProt Q12809)
readout.value: -54.1

structure: Cc1ccc(S(=O)(=O)Nc2c(NC3CCCCC3)c3ccccc3oc2=O)cc1
tgt: human ether-à-go-go-related gene (hERG) potassium channel (human, UniProt Q12809)
readout.value: -33.9

structure: CCCCOc1ccc(Nc2cc(Cl)ccc2C(=O)O)cn1
tgt: human ether-à-go-go-related gene (hERG) potassium channel (human, UniProt Q12809)
readout.value: 23.5

structure: CCCNc1c(NS(=O)(=O)c2c(F)c(F)c(F)c(F)c2F)c(=O)oc2ccccc12
tgt: human ether-à-go-go-related gene (hERG) potassium channel (human, UniProt Q12809)
readout.value: -7.27

----------
# maps each entry to its hERG current change (%, negative = inhibition) at 10uM
Target: human ether-à-go-go-related gene (hERG) potassium channel (human, UniProt Q12809);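 also: peak tail current of the secondary pulse compared with the same well before compound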
Assay: primary screen, population patch clamp on CHO cells stably expressing hERG; higher = less effect of the substance
In all, about 310,000 compounds went through this assay and about 14,000 (4.5%) showed an effect of 50% or more. Effects have a minus sign here. The sample as a whole holds a higher share of strong results than the screen did.
value.kind: hERG current change (%, negative = inhibition) at 10uM (%)

structure: Cc1ccc(SCC(=O)NC(C)(C)C)cc1
readout.value: -8.22
--
structure: Cn1c(CN2CCCC2)nc2cc(NS(=O)(=O)c3ccccc3)ccc21
readout.value: 1.49
--
structure: CC(C)(C)NC(=O)CN(C(=O)CCC(=O)Nc1nccs1)c1ccc(F)cc1
readout.value: 12.6
--
structure: Cn1c(CN2CCCCC2)nc2cc(NS(=O)(=O)c3ccc(Cl)cc3)ccc21
readout.value: -62.5
--
structure: Cc1cccc(Oc2coc3cc(OC(=O)c4cncc(Br)c4)ccc3c2=O)c1
readout.value: -5.03
--
structure: O=C1C(NS(=O)(=O)c2cccs2)=C(N2CCOCC2)C(=O)c2ccccc21
readout.value: -40.8
--
structure: CC1(C)C(=O)Nc2ccccc2N1C(=O)COc1ncnc2c(Cl)cc(Cl)cc12
readout.value: -9.51
--
structure: COC(=O)c1ccc(OC(=O)CCN2c3ccccc3Sc3ccccc32)cc1
readout.value: 8.91
--
structure: Cn1c(NNC(=O)c2cccc3ccccc23)cc(=O)n(C)c1=O
readout.value: 6.73
--
structure: Cc1nc2oc3ccc(Cl)cc3c(=O)c2cc1C(=O)O
readout.value: 19

----------
Target: human ether-à-go-go-related gene (hERG) potassium channel (human);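 also: peak tail current of the secondary pulse compared with the same well before compound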
Test: primary screen, population patch clamp on CHO cells stably expressing hERG; higher = less effect of the substance
Screen size: about 310,000 compounds; about 14,000 (4.5%) showed an effect of 50% or more. The effect is printed as a negative number. The list comes from a sample in which strong results are over-represented; it also holds close analogues and randomly drawn compounds.
compounds and their reported hERG current change (%, negative = inhibition) at 10uM
value.kind: hERG current change (%, negative = inhibition) at 10uM (%)

compound: CC(C)N(Cc1ccccc1)C(=S)Nc1ccc(F)cc1
uom: %
readout.value: -3.42
--
compound: CCCOC1CCCN(C(=O)c2ccc3oc(C(C)C)nc3c2)C1 (stereo not drawn)
uom: %
readout.value: 3.64
--
compound: FC(F)Oc1ccc(NC(=S)NCc2cccnc2)cc1
uom: %
readout.value: -2.69
--
compound: Cc1ccc(CS(=O)Cc2ccc(C(=O)NCCc3ccccc3)o2)cc1 (stereo not drawn)
uom: %
readout.value: -7.62
--
compound: CN(C)CCCN(Cc1ccccc1)C(=S)Nc1ccc(OC(F)F)cc1
uom: %
readout.value: -70.3
--
compound: CN(C)C(=S)Nc1cccc(C(F)(F)F)c1
uom: %
readout.value: 5.67

----------
Target: human ether-à-go-go-related gene (hERG) potassium channel (human, UniProt Q12809);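 also: peak tail current of the secondary pulse compared with the same well before compound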
Assay: primary screen, population patch clamp on CHO cells stably expressing hERG; higher = less effect of the substance
In all, about 310,000 compounds went through this assay and about 14,000 (4.5%) showed an effect of 50% or more. Effects have a minus sign here. The full list was thinned out, with strong results kept by preference.
Response key: TRUE means hERG current change (%, negative = inhibition) at 10uM >= -10%; FALSE means hERG current change (%, negative = inhibition) at 10uM < -10%.

compound: Cc1oc(-c2ccccc2F)nc1CN1CCC(C(=O)NC2CC2)CC1
assigned.class: FALSE

compound: O=C(CCCn1c(SCc2cc(=O)n3ccccc3n2)nc2ccccc2c1=O)NCC1CCCO1 (stereo not drawn)
assigned.class: TRUE

compound: O=C(CSc1nnc(-c2cccs2)o1)N1CCCc2ccccc21
assigned.class: TRUE

compound: Cc1oc(-c2ccccc2F)nc1CN1CCC(C(=O)NC2CCCc3ccccc32)CC1 (stereo not drawn)
assigned.class: FALSE

compound: O=c1cc(N2CCN(c3ccccc3F)CC2)[nH]c(=O)n1-c1ccc(Br)cc1
assigned.class: FALSE

compound: Cc1ccccc1-c1nc(CN2CCC(C(=O)NCCC3=CCCCC3)CC2)c(C)o1
assigned.class: FALSE

compound: CC(C)n1c(SCc2cc(=O)[nH]c3ccccc23)nc2c1c(=O)n(C)c(=O)n2C
assigned.class: TRUE

compound: CCOC(=O)c1oc2ccc(CNC(C)(C)C)c(Cl)c2c1C.O=C(O)C(=O)O
assigned.class: TRUE

compound: Cc1ccccc1-c1nc(CN2CCC(C(=O)NCCCN3CCOCC3)CC2)c(C)o1
assigned.class: FALSE

----------
Biological target: human ether-à-go-go-related gene (hERG) potassium channel (human);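 also: peak tail current of the secondary pulse compared with the same well before compound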
Test: primary screen, population patch clamp on CHO cells stably expressing hERG; higher = less effect of the substance
Out of some 310,000 compounds screened, about 14,000 (4.5%) showed an effect of 50% or more. Effects have a minus sign here. The entries come from a sample that favours strong results as a whole.
value.kind: hERG current change (%, negative = inhibition) at 10uM

compound: OCCNc1nc(C2CC2)nc2c1nnn2Cc1ccccc1Cl
readout.value: -0.392%

compound: C[C@H](NC(=O)c1ccccc1Cl)C(=O)OCc1cn2cc(Cl)ccc2n1
readout.value: -7.08%

compound: COC(=O)CCC(=O)NC(=S)Nc1cc(Cl)ccc1Cl
readout.value: 10.5%

compound: COc1cc(C(=O)OCc2cc(=O)c(O)co2)ccc1OC(F)F
readout.value: -12.9%

compound: COc1cccc(CC2(CO)CCCN(Cc3c(C)cc(C)cc3-n3cccn3)C2)c1 (stereo not shown)
readout.value: -84.4%

compound: CC(C)(C)c1ccc(S(=O)(=O)N(CCCN2CCOCC2)Cc2cccs2)cc1.O=C(O)C(=O)O
readout.value: -33.4%

compound: CSCC[C@H](NC(=O)NCc1cccs1)C(=O)O
readout.value: -10.4%

compound: CCOC(=O)N1CCC(NC(=O)CN(c2ccc(C(C)C)cc2)S(=O)(=O)c2c(C)nn(C)c2C)CC1
readout.value: -10.3%

compound: COc1cc(/C=C/C(=O)O)cc(S(=O)(=O)Nc2ccccc2Cl)c1OC
readout.value: 18.8%

compound: COc1ccc(S(=O)(=O)N(CCCN2CCOCC2)Cc2ccc(OC)c(OC)c2)cc1
readout.value: -39.9%

compound: O=S(=O)(NCc1ccc(C(F)(F)F)cc1)c1ccc(-n2cnnn2)cc1
readout.value: -22.2%

compound: CN(CC(=O)Nc1ccccc1Sc1ccccc1)Cc1nc2ccccc2c(=O)[nH]1
readout.value: -37.1%

compound: COc1cccc(CC2(CO)CCCN(Cc3cn[nH]c3-c3ccc(F)cc3)C2)c1 (stereo not shown)
readout.value: 6.58%

compound: O=C(NCCC1=CCCCC1)c1cc(-c2ccccn2)nc2ccccc12
readout.value: 8.77%

compound: O=C1COc2ccc(C(=O)COC(=O)CNC(=O)C3CCCCC3)cc2N1
readout.value: -7.17%

compound: O=C(O)C(=O)O.O=S(=O)(c1ccc(Cl)cc1)N(CCCN1CCOCC1)Cc1cccs1
readout.value: -63.7%

compound: CSc1ccccc1OCc1cc(C(=O)N2CCC[C@H]2C(N)=O)no1
readout.value: 5.26%

compound: COc1cccc(CC2(CO)CCCN(Cc3cc(F)ccc3-n3cccn3)C2)c1 (stereo not shown)
readout.value: -77.3%

compound: O=C(N/N=C/c1ccc([N+](=O)[O-])cc1)c1cccc2cc[nH]c12
readout.value: 12.4%

Recorded values, source paper PMC4336329.
